# experiment: folding stability dG unfold (combined trypsin and chymotrypsin); higher = more stable
Please note: Yes applies when folding stability dG unfold is 2 kcal/mol or greater, and No applies otherwise.

> print(dat)
                              sequence.data  group
1  SAGKPKVIFIEGMTKEQLRAAIDEAKKKLKPGDIIVVRSKEAADALKELLPDLTVYLVDEETKEVKKLPSAG [r5_391_TrROS_Hall]    Yes
2  SAGGSAGGPPDIVTLPIWIGGLKVEIMVYPDGSVTIMFRFPDWYYMITFPLKNGKIEIEWVPLKSAGGSAGG [r6_555_TrROS]    Yes
3  SAGGKKIEIKEENGSLVIKVDGYLVTIEPIDGKLVATVVKKDKKTKKWKIVETKILTLDEILELLKKSAGGS [r8_174_TrROS_Hall]    Yes
4  SAGRIKSIQINPYENPNGQYPITVRVRWPGNGKERDRNFPMSPNDARNQAKELAKELPGKPLEIDEITSAGG [r19_317_TrROS]     No
5  SAGGSMTEEERRALAEEIAKEVAEKISEEEGIPVKEILSIEVHPDGSVTITIKFPGTEGERTITIPRSAGGS [r16_622_JUSTAS]    Yes
6  SAGGSAMVTPEERVEAALAYIRGKYGFPLSATPAQLREAGLPVRVELTVTDADGRPLATVTLEIPGSAGGSA [r15_391_TrMRF]     No
7  SAGGSAMSIPLEELIEYVKKPGYKITEKKLPNGTLEITITNPKTGKTTKVTVYPPPTFSVEIKPDPSAGGSA [r15_442_JUSTAS]     No

Attribution: the supplement of paper PMC12764529
